system: johnsongrass (Sorghum halepense, SORHA); assay: Post-emerge greenhouse herbicide activity screening, phytotoxicity rating; type: in vivo; settings: 250 g ai/ha, 14 days after application

{"columns": ["Smiles entry", "SORHA phytotoxicity rating (0-100 scale)"],
 "data": [
  ["Cn1c(C(F)(F)F)cc(=O)n(-c2cc(Oc3ccccc3O)c(C#N)cc2F)c1=S", 25],
  ["Cn1c(C(F)(F)F)cc(=O)n(-c2cc(Oc3ncccn3)c(Cl)cc2F)c1=S", 98],
  ["Cn1c(C(F)(F)F)cc(=O)n(-c2cc(Oc3ncccc3[N+](=O)[O-])c(Cl)cc2F)c1=S", 50],
  ["Cn1nc(-c2cc(Oc3ncccn3)c(Cl)cc2F)c(=O)n(C)c1=S", 75],
  ["Cn1c(C(F)(F)F)cc(=O)n(-c2cc(Oc3ccccc3[N+](=O)[O-])c(Cl)cc2F)c1=S", 0],
  ["Cn1c(=S)n(C)c(=O)n(-c2cc(Oc3ccccc3[N+](=O)[O-])c(Cl)cc2F)c1=O", 0],
  ["COc1ccccc1Oc1cc(-n2c(=O)cc(C(F)(F)F)n(C)c2=S)c(F)cc1C#N", 15],
  ["Cn1c(C(F)(F)F)cc(=O)n(-c2cc(Oc3ncccc3C(F)(F)F)c(Cl)cc2F)c1=S", 0]
]}
